The reported numbers originate from ChEMBL document CHEMBL1140006.

Target: Prostaglandin D2 receptor 2 (Homo sapiens, UniProt Q9Y5Y4)
Sequence (Q9Y5Y4 whole entry): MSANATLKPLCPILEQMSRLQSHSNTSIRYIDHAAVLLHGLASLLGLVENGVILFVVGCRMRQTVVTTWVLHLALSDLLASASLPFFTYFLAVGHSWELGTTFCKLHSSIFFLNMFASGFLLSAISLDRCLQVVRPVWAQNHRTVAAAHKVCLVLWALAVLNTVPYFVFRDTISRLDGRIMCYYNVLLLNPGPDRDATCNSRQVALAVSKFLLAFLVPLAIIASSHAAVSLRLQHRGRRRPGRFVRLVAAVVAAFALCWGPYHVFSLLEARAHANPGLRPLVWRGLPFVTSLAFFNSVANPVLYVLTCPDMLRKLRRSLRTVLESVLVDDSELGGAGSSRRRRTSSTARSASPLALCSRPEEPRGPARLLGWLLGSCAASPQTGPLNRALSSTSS
Assay: Displacement of […] from human CRTh2 receptor expressed in CHO cells
# note: exactly 300 nM is not below, so it is n; use y for Ki strictly under it

1) O=C(O)COc1ccc(Cl)cc1C1CCCCC1: y
2) O=C(O)COc1ccc(C(F)(F)F)cc1C1CCCCC1: y

Answer whether the compound COc1ccc(OCC(=O)O)c(C2CCCCC2)c1 has Ki strictly less than 300 nM
n

Just wondering, is Ki of O=C(O)COc1ccc(Br)cc1C1CCCCC1 below 300 nM?
y

====

Test: Permeability from basolateral to apical side of Caco-2 cell membrane
Format: ADME, cell-based
Conditions: human, read-out: permeability
VALUE_KIND: Papp B→A (×10⁻⁶ cm/s)
Write the value in ×10⁻⁶ cm/s as a bare number.

Per the record, O=C(O)COc1ccc(Cl)cc1C1CCCCCC1 has Papp B→A of 21.4
